assay_target: PRMT5/MEP50 (Homo sapiens)
Construct: Expressed full-length human Flag-PRMT5/6His-MeP50 protein complex was purified; made in house; host or cells: Spodoptera frugiperda (SF9) insect cells, baculovirus (pDEST8)
assay: PRMT5 Biochemical Assay (PRMT5/MEP50 enzyme assay on peptide substrate, 3H-SAM Flashplate)
protocol_conditions: Table A-2; PRMT5/MEP50 4 nM, 3H-SAM 75 nM, peptide 40 nM; read-out: Biochemical IC50
The reader will find reported IC50 values listed item by item below.

Reference set (3 entries):
>>> df
                                   compound   result_value
0  NC(=O)c1ccccc1OCC(=O)NCC(O)CN1CCc2ccccc2C1 (stereo not drawn)  0.101 to 1 µM
1  O=C(COc1ccccc1N1CCOCC1)NCC(O)CN1CCc2ccccc2C1 (stereo not drawn)       < 0.1 µM
2  N#Cc1ccc(OCC(=O)NCC(O)CN2CCc3ccccc3C2)cc1 (stereo not drawn)  0.101 to 1 µM

[Q] Recall the recorded IC50 for CS(=O)(=O)Nc1ccc(OCC(=O)NCC(O)CN2CCc3ccccc3C2)cc1 (stereo not drawn) with PRMT5/MEP50 (Homo sapiens) and state it.
[A] 0.101 to 1 µM

[Q] Quick check: IC50 on PRMT5/MEP50 (Homo sapiens), item CN1CC(c2ccccc2OCC(=O)NCC(O)CN2CCc3ccccc3C2)C1 (stereo not drawn) ?
[A] 1 to 10 µM

[Q] Give recorded IC50 with PRMT5/MEP50 (Homo sapiens) for the following compound: N#Cc1ccccc1OCC(=O)NCC(O)CN1CCc2ccccc2C1 (stereo not drawn)
[A] 0.101 to 1 µM

* * *

assay_target: PRMT5/MEP50 (Homo sapiens)
Construct: Expressed full-length human Flag-PRMT5/6His-MeP50 protein complex was purified; made in house; host or cells: Spodoptera frugiperda (SF9) insect cells, baculovirus (pDEST8)
assay: PRMT5 Biochemical Assay (PRMT5/MEP50 enzyme assay on peptide substrate, 3H-SAM Flashplate)
protocol_conditions: Table B-2; PRMT5/MEP50 4 nM, 3H-SAM 75 nM, peptide 40 nM; read-out: Biochemical IC50
pIC50: −log10 of the molar value.
pIC50 values for the molecules below.

>>> print(df.to_string())
                                   molecule  result_value
0  CC(Nc1cccc(C(=O)NCC(O)CN2CCc3ccccc3C2)c1)C1CCOCC1 (stereo not drawn)  6.00 to 7.00

[Q] Given O=C(NCC(O)CN1CCc2ccccc2C1)c1ccc(OC2CCOCC2)cc1 (stereo not drawn) , state its recorded pIC50.
[A] > 7.00

[Q] Given the entry O=C(NCC(O)CN1CCc2ccccc2C1)c1ccccc1-c1ccccn1 (stereo not drawn) , report its measured pIC50.
[A] 6.00 to 7.00

[Q] Name the recorded pIC50 for CCN(c1cccc(C(=O)NCC(O)CN2CCc3ccccc3C2)c1)C1CCOCC1 (stereo not drawn) .
[A] 6.00 to 7.00

[Q] What pIC50 value was documented for this molecule, O=C(NCC(O)CN1CCc2ccccc2C1)c1cccc(N2CCOCC2)c1 (stereo not drawn) ?
[A] > 7.00

[Q] Please look up its pIC50: O=C(NC[C@@H](O)CN1CCc2ccccc2C1)c1cccc(-c2ccccn2)c1
[A] > 7.00

[Q] Report pIC50 for O=C(NCC(O)CN1CCc2ccccc2C1)c1cccc(NC2CCOCC2)c1 (stereo not drawn) please.
[A] > 7.00

[Q] Name the recorded pIC50 for O=C(NC[C@@H](O)CN1CCc2ccccc2C1)Oc1ccccc1 .
[A] > 7.00

[Q] What measured pIC50 goes with Cn1nccc1-c1cccc(C(=O)NCC(O)CN2CCc3ccccc3C2)c1 (stereo not drawn) ?
[A] > 7.00

* * *

assay_target: PRMT5/MEP50 (Homo sapiens, UniProt O14744)
Construct: Expressed full-length human Flag-PRMT5/6His-MeP50 protein complex was purified; made in house; host or cells: Spodoptera frugiperda (SF9) insect cells, baculovirus (pDEST8)
Sequence (O14744 with tags, fused parts or gaps): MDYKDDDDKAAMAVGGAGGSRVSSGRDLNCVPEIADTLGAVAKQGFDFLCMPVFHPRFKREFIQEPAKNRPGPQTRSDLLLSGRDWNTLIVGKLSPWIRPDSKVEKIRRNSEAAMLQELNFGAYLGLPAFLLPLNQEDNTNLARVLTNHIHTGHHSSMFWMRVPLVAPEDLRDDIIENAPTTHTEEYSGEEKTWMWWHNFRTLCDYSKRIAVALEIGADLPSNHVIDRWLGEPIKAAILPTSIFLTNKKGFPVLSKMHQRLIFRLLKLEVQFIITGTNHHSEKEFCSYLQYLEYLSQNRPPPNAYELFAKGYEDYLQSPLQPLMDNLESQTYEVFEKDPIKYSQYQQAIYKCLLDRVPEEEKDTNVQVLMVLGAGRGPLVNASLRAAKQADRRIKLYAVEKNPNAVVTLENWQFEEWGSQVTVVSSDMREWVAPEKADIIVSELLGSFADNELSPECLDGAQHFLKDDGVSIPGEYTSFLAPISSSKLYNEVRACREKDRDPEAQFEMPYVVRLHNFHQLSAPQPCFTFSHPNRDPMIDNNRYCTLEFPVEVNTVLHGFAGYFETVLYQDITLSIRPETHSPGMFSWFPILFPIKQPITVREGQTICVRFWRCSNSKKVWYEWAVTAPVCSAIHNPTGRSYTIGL
Sequence (Q9BQA1 with tags, fused parts or gaps partner limits assumed): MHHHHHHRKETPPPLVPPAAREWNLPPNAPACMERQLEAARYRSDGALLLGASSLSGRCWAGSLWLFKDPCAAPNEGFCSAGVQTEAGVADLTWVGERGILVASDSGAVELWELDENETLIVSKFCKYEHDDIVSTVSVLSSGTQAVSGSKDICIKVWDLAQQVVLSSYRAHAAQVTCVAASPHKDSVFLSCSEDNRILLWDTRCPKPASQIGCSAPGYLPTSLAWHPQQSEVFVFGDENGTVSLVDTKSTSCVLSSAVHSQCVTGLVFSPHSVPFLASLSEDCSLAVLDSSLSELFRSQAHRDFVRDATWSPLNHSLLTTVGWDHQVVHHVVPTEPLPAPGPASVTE
assay: PRMT5 Biochemical Assay (PRMT5/MEP50 enzyme assay on peptide substrate, 3H-SAM Flashplate)
protocol_conditions: Table E-2; read-out: Biochemical IC50
IC50 values for the compounds below.

Please review the entries below; each comes with its answer.
In [3]: df
Out[3]:
                                   compound                              assay_target      result_value
0  CS(=O)(=O)c1ccccc1OCC(=O)NCC(O)CN1Cc2ccccc2C1 (stereo not drawn) [Compound E12.]  PRMT5/MEP50 (Homo sapiens, UniProt O14744)    101 to 1000 nM
1  OC(COc1cccc(CNC2CCCC2)c1)CN1Cc2ccccc2C1 (stereo not drawn) [Compound E20.]  PRMT5/MEP50 (Homo sapiens, UniProt O14744)  1000 to 10000 nM
2  Nc1cccc(C(=O)NCC(O)CN2Cc3ccccc3C2)c1 (stereo not drawn) [Compound E2.]  PRMT5/MEP50 (Homo sapiens, UniProt O14744)  1000 to 10000 nM
3  Cn1cnc2ccc(-c3cccc(OCC(O)CN4Cc5ccccc5C4)c3)cc21 (stereo not drawn) [Compound E9.]  PRMT5/MEP50 (Homo sapiens, UniProt O14744)  1000 to 10000 nM
4  C[C@H](Oc1cccc2cccnc12)C(=O)NC[C@@H](O)CN1Cc2ccccc2C1 [Compound E6.]  PRMT5/MEP50 (Homo sapiens, UniProt O14744)        > 10000 nM
5  COc1ccc(Cn2cnc3ccc(-c4ccc(OCC(O)CN5Cc6ccccc6C5)cc4)cc32)cc1 (stereo not drawn) [Compound E18.]  PRMT5/MEP50 (Homo sapiens, UniProt O14744)  1000 to 10000 nM

[Q] Could you tell me which IC50 is on file for O=C(COc1cccc2cccnc12)NC[C@@H](O)CN1Cc2ccccc2C1 [Compound E16.] ?
[A] 1000 to 10000 nM

[Q] What measured IC50 goes with O=C(NCC(O)CN1Cc2ccccc2C1)c1cccc(-c2ccccn2)c1 (stereo not drawn) [Compound E13.] ?
[A] 101 to 1000 nM

* * *

molecules and their reported pIC50
assay_target: PRMT5/MEP50 (Homo sapiens, UniProt O14744)
Construct: Expressed full-length human Flag-PRMT5/6His-MeP50 protein complex was purified; made in house; host or cells: Spodoptera frugiperda (SF9) insect cells, baculovirus (pDEST8)
assay: PRMT5 Biochemical Assay (PRMT5/MEP50 enzyme assay on peptide substrate, 3H-SAM Flashplate)
protocol_conditions: Table D-2; read-out: Biochemical IC50
pIC50: −log10 of the molar value.

>>> print(df.to_string())
                                   molecule  result_value
0  Cc1ccc(F)c(-c2cccc(OCC(O)CN3CCc4ccccc4C3)c2)c1 (centres unmarked) [Compound D138]  6.00 to 7.00

[Q] What measured pIC50 goes with N#Cc1ccccc1-c1cccc(OCC(O)CN2CCc3ccccc3C2)c1 (centres unmarked) [Compound D93] ?
[A] 6.00 to 7.00

[Q] What pIC50 value was documented for this molecule, CN(C)c1ncc(-c2cccc(OCC(O)CN3CCc4ccccc4C3)c2)cn1 (centres unmarked) [Compound D125] ?
[A] 6.00 to 7.00

[Q] For Cn1cncc1C(=O)Nc1cccc(OCC(O)CN2CCc3ccccc3C2)c1 (centres unmarked) [Compound D195] , what is its reported pIC50?
[A] 5.00 to 6.00

[Q] For the molecule OC(COC1CCN(Cc2ccccc2)CC1)CN1CCc2ccccc2C1 (centres unmarked) [Compound D21] , what pIC50 is on record?
[A] 5.00 to 6.00

* * *

System: Z-138 cells
assay: Z-138 Proliferation Assay (Cell Titer Glo, 5 days)
Type: cell-based
protocol_conditions: Homo sapiens, Table D-2
measurement_type: EC50

                                   compound  result_value
0  N#Cc1ccc(-c2cccc(OCC(O)CN3CCc4ccccc4C3)c2)cc1 (centres unmarked) [Compound D94]   10 to 40 µM
1  N#Cc1cccc(-c2cccc(OCC(O)CN3CCc4ccccc4C3)c2)c1 (centres unmarked) [Compound D172]       > 20 µM
2  CS(=O)(=O)c1ccccc1-c1cccc(OCC(O)CN2CCc3ccccc3C2)c1 (centres unmarked) [Compound D131]       > 20 µM
3  CN1CCC(n2cnc3ccc(-c4cccc(OCC(O)CN5CCc6ccccc6C5)c4)cc32)CC1 (centres unmarked) [Compound D221]    1 to 10 µM
4  Cn1cnc2ccc(-c3cc(NCC(O)CN4CCc5ccccc5C4)ccn3)cc21 (centres unmarked) [Compound D217]   10 to 40 µM

[Q] Field request: EC50 | item: CS(=O)(=O)Nc1ccc(-c2cccc(OCC(O)CN3CCc4ccccc4C3)c2)cc1 (centres unmarked) [Compound D129]
[A] 10 to 40 µM

[Q] Report EC50 for COc1cccc2c1CN(CC(O)COc1cccc(CNC3CCCC3)c1)CC2 (centres unmarked) [Compound D29] please.
[A] 10 to 40 µM

[Q] Return reported EC50; argument: Cn1cnc2ccc(-c3cc(NCC(O)CN4CCc5ccccc5C4)n[nH]3)cc21 (centres unmarked) [Compound D271]
[A] > 20 µM
